# Target Or Test System: rat Thyrotropin Releasing Hormone Receptor (TRH), Trhr (gene 25570) (UniProt Q01717)
# Sequence (Q01717 whole entry, looked up): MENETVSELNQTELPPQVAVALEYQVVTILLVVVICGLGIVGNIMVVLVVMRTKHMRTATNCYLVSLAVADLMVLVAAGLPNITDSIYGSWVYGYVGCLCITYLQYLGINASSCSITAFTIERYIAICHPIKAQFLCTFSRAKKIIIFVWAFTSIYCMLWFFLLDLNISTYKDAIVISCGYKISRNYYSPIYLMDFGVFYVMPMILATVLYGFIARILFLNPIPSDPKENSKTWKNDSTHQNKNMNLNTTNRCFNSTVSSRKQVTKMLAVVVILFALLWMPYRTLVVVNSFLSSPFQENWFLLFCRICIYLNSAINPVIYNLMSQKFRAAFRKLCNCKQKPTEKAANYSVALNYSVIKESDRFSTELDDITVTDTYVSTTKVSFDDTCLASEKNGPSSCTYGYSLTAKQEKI
# Procedure Summary: NVS_GPCR_rTRH: NovaScreen (NVS) G Protein-Coupled Receptor Assay for rat Thyrotropin Releasing Hormone Receptor (TRH) (AID 2283329);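 also: hit means lower bound tracer signal versus DMSO baseline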
Results filed as inconclusive are left out. Calls of active or inactive are those of the source. The calls were made as follows: active = hit-call score of the fitted dose curve at least 0.9, where 1 is the maximum; inconclusive = response in the unintended direction; inactive = score below 0.9.
Labels: class 1 (active), class 0 (inactive)

{"columns": ["Compound", "Discrete Label"],
 "data": [
  ["CS(=O)(=O)c1ccc([C@@H](C[C@H]2CCC(=O)C2)C(=O)Nc2cnccn2)cc1Cl", "class 0"],
  ["O=C(O)CN(CC(=O)O)CC(=O)O", "class 1"],
  ["O=[Si]=O", "class 0"],
  ["O=C1CCCCC1", "class 0"],
  ["C#CC(O)C(CC)CCCC (stereo unspecified)", "class 0"],
  ["Cc1cc(Cc2ccc(N)c(C)c2)ccc1N", "class 0"]
]}
